- test-summary: Protein binding in human plasma assessed as unbound fraction
- Format: ADME, cell-free
parameter: fraction unbound

Consider the worked cases shown below.
CS(=N)(=O)c1cccc(NC(=O)c2cc(C(F)(F)F)cnc2Oc2ccc(F)cc2Cl)c1 (centres undefined)
0.073
Cc1cc(F)ccc1Oc1ncc(C(F)(F)F)cc1C(=O)Nc1cccc([S@](C)(=N)=O)c1
0.14

A. O=C(Nc1ccc[n+]([O-])c1)c1cc(C(F)(F)F)cnc1Oc1ccc(F)cc1Cl
B. COc1cc(F)ccc1Oc1cc(C(F)(F)F)ncc1C(=O)Nc1ccnnc1
I need your help: which of the pair A , B has higher fraction unbound? Identify your pick by its label. B

The measured values listed here are drawn from ChEMBL document CHEMBL6114946.
